Test system: SF-539 CNS
Assay: NCI-60 one-dose screen, 48 h (100 = growth as untreated, 0 = no growth, -100 = all killed)
Settings: 10 µM
Experimental: Cells are grown in 96 well plates and exposed to the test compound for 48 hours. Compounds are tested at a single concentration, which is 10^-5 M for most compounds. The reported endpoint is percent growth (GI% or GIPRCNT), where numbers from 0 - 100% represent growth inhibition, and numbers from -100% - 0 represent cell death. For example, a value of 40 represents 60% growth inhibition. A value of 0 means no net growth occurred over the course of the experiment. […]
This is part of a sample that, as a whole, favours compounds with a hit. Of some 83,000 tested, about 20% had one in any assay. Activity calls are given as the source filed them. The calls were made as follows: active = growth percent below 10; inactive = the rest.
Provide the recorded growth for the entries that follow.

IN: Annotate the molecule "CCN(CC)CCOc1cccc2c1C(=O)c1cccc(OCCN(CC)CC)c1C2=O" with its measured growth.
OUT: 37.3% (inactive)

IN: Annotate the molecule "O=C(/C=C/C=C/c1c(C2CC2)nc2ccccc2c1-c1ccc(F)cc1)c1cccs1" with its measured growth.
OUT: -32.8% (active)

IN: Annotate the molecule OC[C@H]1OC([S-])[C@H](O)[C@@H](O)[C@@H]1O.[Au+] (some centres undefined) with its measured growth.
OUT: 84.3% (inactive)

IN: Annotate the molecule "COc1ccc(C(=O)N/N=C/c2cc(C(F)(F)F)ccc2Cl)cc1" with its measured growth.
OUT: 104% (inactive)

###

Test system: M14 melanoma
Assay: NCI-60 one-dose screen, 48 h (100 = growth as untreated, 0 = no growth, -100 = all killed)
Conditions: 10 µM
Description: Growth inhibition of the M14 human tumor cell line is measured as a screen for anti-cancer activity. Cells are grown in 96 well plates and exposed to the test compound for 48 hours. Compounds are tested at a single concentration, which is 10^-5 M for most compounds. The reported endpoint is percent growth (GI% or GIPRCNT), where numbers from 0 - 100% represent growth inhibition, and numbers from -100% - 0 represent cell death. For example, a value of 40 represents 60% growth inhibition. […]
Compounds without any hit were thinned out: in the full panel of roughly 83,000, 20% have a hit.
Strictly below 80% in growth: true. Otherwise: false.

IN: Hello, is growth of the following compound strictly smaller than 80%? "Brc1ccc2c(c1)-c1ccccc1C1=NCCN12"
OUT: true

IN: Hello, is growth of the following compound strictly smaller than 80%? "O=C(NCCCNS(=O)(=O)c1ccc(Cl)cc1)Nc1ccc(-n2cc(-c3ccncc3)c(-c3ccc(Cl)c(O)c3)n2)cc1"
OUT: true

IN: Hello, is growth of the following compound strictly smaller than 80%? "Cc1nn(-c2ccc(-c3ccc(OC(F)(F)F)cc3)cc2)c2nc(Cc3ccccc3)nc(N)c12"
OUT: true

IN: Hello, is growth of the following compound strictly smaller than 80%? COC(=O)C1(O)NC(=C(C#N)C#N)C(C#N)=C1C(=O)c1ccc(OC)c(OC)c1 (configuration not stated)
OUT: false

IN: Hello, is growth of the following compound strictly smaller than 80%? "O=S(=O)(Oc1ccc(-c2ccc3sccc3c2)cc1)c1ccccc1"
OUT: false

IN: Hello, is growth of the following compound strictly smaller than 80%? OCC1OC(n2cnc3c(NCc4ccco4)ncnc32)C(O)C1O (configuration not stated)
OUT: true

IN: Hello, is growth of the following compound strictly smaller than 80%? "Nc1nccc(OCCO)n1"
OUT: false

IN: Hello, is growth of the following compound strictly smaller than 80%? "COc1ccc(-c2nn(-c3cccc(Cl)c3)cc2-c2cc(-c3ccccc3)nc(N)n2)cc1"
OUT: true

IN: Hello, is growth of the following compound strictly smaller than 80%? "CCOC(=O)Cn1c(=O)c2sc3ncccc3c2n2nnc(-c3ccccc3)c12"
OUT: false

IN: Hello, is growth of the following compound strictly smaller than 80%? "CC[C@H]1OC(=O)[C@H](C)[C@@H](O[C@H]2C[C@@](C)(OC)[C@@H](O)[C@H](C)O2)[C@H](C)[C@@H](O[C@@H]2O[C@H](C)C[C@H](N(C)C)[C@H]2O)[C@](C)(OC)C/C(C)=C2/O[C@@]1(C)C=C2C"
OUT: true

IN: Hello, is growth of the following compound strictly smaller than 80%? Nc1ncnc2c1ncn2C1(CO)OCC(O)C(O)C1O (configuration not stated)
OUT: false

IN: Hello, is growth of the following compound strictly smaller than 80%? "O=C(O)c1cn(C2CC2)c2cc(N3CCN(C(=O)c4cc(-c5ccc(Cl)cc5)nc5ccccc45)CC3)c(F)cc2c1=O"
OUT: false

IN: Hello, is growth of the following compound strictly smaller than 80%? "O=C1CSC(=S)N1/N=C/c1ccc(Cl)s1"
OUT: false

IN: Hello, is growth of the following compound strictly smaller than 80%? "C[C@]12CC[C@@H]3c4ccc(O)cc4CC[C@H]3[C@@H]1CC[C@@H]2NS(=O)(=O)c1ccc(C(F)(F)F)cc1"
OUT: true

IN: Hello, is growth of the following compound strictly smaller than 80%? "COc1cc2c3c(n(C4CCN(C)CC4)c(=O)c2cc1OC)-c1cc2c(cc1C3=O)OCO2"
OUT: true

IN: Hello, is growth of the following compound strictly smaller than 80%? "N#CCc1csc(Cc2ccccc2)n1"
OUT: false

IN: Hello, is growth of the following compound strictly smaller than 80%? "S=c1cnc2ccccc2[nH]1"
OUT: false

###

system: BT-549 breast; experiment: NCI-60 one-dose screen, 48 h (100 = growth as untreated, 0 = no growth, -100 = all killed); settings: 10 µM
Compounds without any hit were thinned out: in the full panel of roughly 83,000, 20% have a hit.
property measured: growth (%)
Give the quantity in %, number only.

IN: Annotate the compound CCc1cc(Cl)c(OC)c(C(=O)NCC2CCCN2CC)c1O (stereo unspecified) with its measured growth.
OUT: 89.2

IN: Annotate the compound "COc1ccc(-c2n[nH]nc2-c2cc(OC)c(OC)c(OC)c2)cc1" with its measured growth.
OUT: 13.6

IN: Annotate the compound "Cc1c2cnccc2c(C)c2c1oc1ccccc12" with its measured growth.
OUT: 80.9

IN: Annotate the compound "CNC(=O)c1cc(Oc2ccc3c(c2)sc2nc(-c4ccc(NC(=O)Nc5ccc(Cl)c(C(F)(F)F)c5)cc4)cn23)ccn1" with its measured growth.
OUT: 75.7

IN: Annotate the compound "CCN1CCN(CCC(=O)Nc2cccc(-n3cc(-c4ccncc4)c(-c4ccc(Cl)c(OC)c4)n3)c2)CC1" with its measured growth.
OUT: 39.2

IN: Annotate the compound "COc1ccc(-c2nn(-c3cccc(Cl)c3)cc2-c2nc(N)[nH]c(=O)c2C#N)cc1" with its measured growth.
OUT: 64

###

System: SK-MEL-5 melanoma
Assay: NCI-60 one-dose screen, 48 h (100 = growth as untreated, 0 = no growth, -100 = all killed)
Settings: 10 µM
Procedure: Growth inhibition of the SK-MEL-5 human tumor cell line is measured as a screen for anti-cancer activity. Cells are grown in 96 well plates and exposed to the test compound for 48 hours. Compounds are tested at a single concentration, which is 10^-5 M for most compounds. The reported endpoint is percent growth (GI% or GIPRCNT), where numbers from 0 - 100% represent growth inhibition, and numbers from -100% - 0 represent cell death. For example, a value of 40 represents 60% growth inhibition. […]
Compounds without any hit were thinned out: in the full panel of roughly 83,000, 20% have a hit.
Strictly below 30% in growth: MET. Otherwise: NOT MET.

IN: Hello, is growth of the following compound strictly smaller than 30%? "Oc1ccc(/C=N/N=C2c3ccccc3-c3ccccc32)c(O)c1"
OUT: MET

IN: Hello, is growth of the following compound strictly smaller than 30%? C=C1CCC2(C#N)[C@H]3[C@H](CC[C@@H]2C)[C@@H](C)C[C@@H](CC(C)(C)NC(=O)CN2CCC2=O)[C@H]13 (some centres not stated)
OUT: MET

IN: Hello, is growth of the following compound strictly smaller than 30%? "COc1cc(-c2nn(-c3cccc(NC(=O)NCCNC(=O)c4cccc(C(F)(F)F)c4)c3)cc2-c2ccncc2)ccc1Cl"
OUT: MET

IN: Hello, is growth of the following compound strictly smaller than 30%? "CCN(CCCNc1cc2c(c(N)c1S(=O)(=O)O)C(=O)c1ccccc1C2=O)c1ccccc1"
OUT: NOT MET

IN: Hello, is growth of the following compound strictly smaller than 30%? "O=C(N/N=C/c1ccc([N+](=O)[O-])cc1)c1ccccc1Nc1cccc(C(F)(F)F)c1"
OUT: NOT MET

IN: Hello, is growth of the following compound strictly smaller than 30%? "CCC(CC)n1c(C)cc(=O)n1C(CC)CC"
OUT: NOT MET

IN: Hello, is growth of the following compound strictly smaller than 30%? CCCN1CN2C(=O)N3CN(CCC)CN4C(=S)N(C1)C2C34 (configuration not stated)
OUT: NOT MET

IN: Hello, is growth of the following compound strictly smaller than 30%? "C[C@]12CC[C@@H]3c4ccc(OS(=O)(=O)O)cc4CC[C@H]3[C@@H]1CC[C@@H]2NS(=O)(=O)c1ccc(-c2ccccc2)cc1"
OUT: NOT MET

IN: Hello, is growth of the following compound strictly smaller than 30%? CCOC(=O)C1C(C(=O)OCC)C2C(=O)C3C(C(=O)OCC)C(C(=O)OCC)C3C(=O)C12 (configuration not stated)
OUT: NOT MET

IN: Hello, is growth of the following compound strictly smaller than 30%? OC(CNc1ccnc2cc(Cl)ccc12)CNC1CCCCC1 (configuration not stated)
OUT: MET

IN: Hello, is growth of the following compound strictly smaller than 30%? Nc1ccccc1NC(=O)c1ccc(CCCC(=O)Nc2ccc(C3CC3N)cc2)cc1 (configuration not stated)
OUT: MET

IN: Hello, is growth of the following compound strictly smaller than 30%? "CNC(=O)c1cc(Oc2ccc3c(c2)sc2nc(-c4ccc(NC(=O)Nc5ccc(Cl)c(C(F)(F)F)c5)cc4)cn23)ccn1"
OUT: NOT MET
